target or system: hCA XII (Homo sapiens)
Sequence (O43570 25-354): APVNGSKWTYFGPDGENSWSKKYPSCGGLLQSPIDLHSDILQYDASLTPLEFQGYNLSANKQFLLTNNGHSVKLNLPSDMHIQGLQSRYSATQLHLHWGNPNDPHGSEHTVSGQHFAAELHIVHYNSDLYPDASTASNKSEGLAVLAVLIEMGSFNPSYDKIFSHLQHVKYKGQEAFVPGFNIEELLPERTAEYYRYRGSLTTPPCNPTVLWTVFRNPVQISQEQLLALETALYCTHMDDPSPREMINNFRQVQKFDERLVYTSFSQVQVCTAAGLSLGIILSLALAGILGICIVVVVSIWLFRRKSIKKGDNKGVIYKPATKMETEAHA
test name: stopped-flow CO2 hydrase assay, hCA XII
measurement parameters: recombinant hCA XII; stopped-flow CO2 hydration; 15 min preincubation; errors ± 10%, 3 assays; read-out: Inhibition data (Ki) hCA XII
Lab note: compare Ki with 0.4 µM, writing true if less and false if equal or more.

Does CC(=O)c1c(O)ccc2c(-c3ccccc3)cc(=O)oc12 have Ki strictly under 0.4 µM?
true

Field entry: CC(=O)Oc1ccc2c(-c3ccccc3)cc(=O)oc2c1 [compound 7, 2-oxo-4-phenyl-2H-chromen-7-yl acetate]
false

Here is the next molecule: Nc1ccc(-c2cc(=O)oc3c(Cl)c(O)ccc23)cc1
true

Now the molecule O=c1cc(-c2ccccc2)c2ccc(O)c(Cl)c2o1
true

Now consider CCC(=O)Oc1ccc2c(-c3ccccc3)cc(=O)oc2c1 .
false

Same lookup for CCC(=O)c1c(O)ccc2c(-c3ccccc3)cc(=O)oc12 , please.
false

Would you kindly repeat that for O=C(Oc1ccc2c(-c3ccccc3)cc(=O)oc2c1)c1ccccc1 [compound 9, 2-Oxo-4-phenyl-2H-chromen-7-yl benzoate] ?
true

----------
target or system: hCA I (Homo sapiens, UniProt P00915)
Construct: made in house
Sequence (P00915 whole entry): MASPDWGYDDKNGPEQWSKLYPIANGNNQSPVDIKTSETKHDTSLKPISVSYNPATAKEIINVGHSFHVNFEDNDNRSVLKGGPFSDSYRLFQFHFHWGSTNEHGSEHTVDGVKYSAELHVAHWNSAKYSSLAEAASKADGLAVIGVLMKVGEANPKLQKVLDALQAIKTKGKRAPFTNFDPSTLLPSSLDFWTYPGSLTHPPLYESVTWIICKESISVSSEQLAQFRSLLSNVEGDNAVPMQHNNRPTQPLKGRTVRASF
test name: stopped-flow CO2 hydrase assay, hCA I
Format: biochemical
measurement parameters: recombinant hCA I; stopped-flow CO2 hydration; 15 min preincubation; errors ± 10%, 3 assays; read-out: Inhibition data (Ki) hCA I
property label: Ki

Entry Nc1ccc(-c2cc(=O)oc3c(Cl)c(O)ccc23)cc1 [compound 17] has what Ki?
> 10 µM

Next: O=C(Oc1ccc2c(-c3ccccc3)cc(=O)oc2c1)c1ccccc1 [compound 9, 2-Oxo-4-phenyl-2H-chromen-7-yl benzoate]
> 10 µM

What about CC(=O)Oc1ccc2c(-c3ccccc3)cc(=O)oc2c1 [compound 7, 2-oxo-4-phenyl-2H-chromen-7-yl acetate] ?
> 10 µM

Note, next up: O=c1cc(-c2ccccc2)c2ccc(O)c(Cl)c2o1 [compound 15]
> 10 µM

Now the compound CC(=O)c1c(O)ccc2c(-c3ccccc3)cc(=O)oc12 [compound 10]
> 10 µM

Same read-out for CCC(=O)Oc1ccc2c(-c3ccccc3)cc(=O)oc2c1 [compound 8] ?
> 10 µM

Subsequent entry: CCC(=O)c1c(O)ccc2c(-c3ccccc3)cc(=O)oc12 [compound 11]
> 10 µM

----------
target or system: hCA IX (Homo sapiens)
test name: stopped-flow CO2 hydrase assay, hCA IX
measurement parameters: recombinant hCA IX; stopped-flow CO2 hydration; 15 min preincubation; errors ± 10%, 3 assays; read-out: Inhibition data (Ki) hCA IX
property label: Ki (nM)
The answer is to be given in nM; state only the numeric part.

Which Ki value belongs to CCC(=O)Oc1ccc2c(-c3ccccc3)cc(=O)oc2c1 [compound 8] ?
97.8

Thanks! And CCC(=O)c1c(O)ccc2c(-c3ccccc3)cc(=O)oc12 [compound 11] ?
3040

Cool, now O=c1cc(-c2ccccc2)c2ccc(O)c(Cl)c2o1 [compound 15]
261

Continue with O=C(Oc1ccc2c(-c3ccccc3)cc(=O)oc2c1)c1ccccc1 [compound 9, 2-Oxo-4-phenyl-2H-chromen-7-yl benzoate]
21.8

Also CC(=O)Oc1ccc2c(-c3ccccc3)cc(=O)oc2c1 [compound 7, 2-oxo-4-phenyl-2H-chromen-7-yl acetate] , if possible.
56.2

Same thing, different compound: Nc1ccc(-c2cc(=O)oc3c(Cl)c(O)ccc23)cc1 [compound 17]
180

Now give it for CC(=O)c1c(O)ccc2c(-c3ccccc3)cc(=O)oc12 [compound 10] too.
177

----------
Exercise: state measured melting point for each of the molecules provided.

Record request: melting point value, item Nc1ccc(-c2cc(=O)oc3c(Cl)c(O)ccc23)cc1 [compound 17]
313 to 315 °C

Also O=c1cc(-c2ccc([N+](=O)[O-])cc2)c2ccc(O)c(Cl)c2o1 [compound 16] ?
303 to 305 °C

Try this molecule next: CCC(=O)Oc1ccc2c(-c3ccccc3)cc(=O)oc2c1 [compound 8]
172 to 174 °C

Same question for CCC(=O)c1c(O)ccc2c(-c3ccccc3)cc(=O)oc12 [compound 11] please.
172 to 174 °C

// query: O=c1cc(-c2ccccc2)c2ccc(O)c(Cl)c2o1 [compound 15]
214 to 215 °C

Would you kindly repeat that for CC(=O)Oc1ccc2c(-c3ccccc3)cc(=O)oc2c1 [compound 7, 2-oxo-4-phenyl-2H-chromen-7-yl acetate] ?
129 to 131 °C

----------
target or system: hCA II (Homo sapiens, UniProt P00918)
Construct: made in house
test name: stopped-flow CO2 hydrase assay, hCA II
Format: biochemical
measurement parameters: recombinant hCA II; stopped-flow CO2 hydration; 15 min preincubation; errors ± 10%, 3 assays; read-out: Inhibition data (Ki) hCA II
I'd appreciate it if you could supply Ki values for the items below.

Fill in the blank: the reported Ki of CCC(=O)c1c(O)ccc2c(-c3ccccc3)cc(=O)oc12 [compound 11] is ____.
> 10 µM

Record: CCC(=O)Oc1ccc2c(-c3ccccc3)cc(=O)oc2c1 [compound 8]
> 10 µM

// next record Nc1ccc(-c2cc(=O)oc3c(Cl)c(O)ccc23)cc1 [compound 17]
> 10 µM
